Listed below: Ki values for each entry.
molecular target: D(2) dopamine receptor (Homo sapiens)
Sequence (P14416 whole entry): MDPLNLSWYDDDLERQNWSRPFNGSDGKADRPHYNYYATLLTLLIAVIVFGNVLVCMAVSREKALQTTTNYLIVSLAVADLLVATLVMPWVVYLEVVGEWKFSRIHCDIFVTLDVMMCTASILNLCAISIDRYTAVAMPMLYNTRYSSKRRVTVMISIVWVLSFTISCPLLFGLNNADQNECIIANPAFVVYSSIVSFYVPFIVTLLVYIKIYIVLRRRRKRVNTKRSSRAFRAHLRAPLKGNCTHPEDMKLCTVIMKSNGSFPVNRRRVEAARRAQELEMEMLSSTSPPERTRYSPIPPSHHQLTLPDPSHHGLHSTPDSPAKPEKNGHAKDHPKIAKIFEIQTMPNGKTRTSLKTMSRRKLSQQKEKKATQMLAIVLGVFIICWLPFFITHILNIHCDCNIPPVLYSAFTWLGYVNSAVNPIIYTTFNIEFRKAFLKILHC
Just the number please, in nM, no unit attached.

Compound | Target Of Assay | Ki (nM)
O=S(=O)(N[C@@H]1CCN(CCOc2ccccc2-c2ccccc2)C1)c1ccc(Cl)s1 | D(2) dopamine receptor (Homo sapiens) | 39

Please find the next compound below.
(Q) For the compound shown here, O=S(=O)(N[C@H]1CCN(CCOc2ccccc2-c2ccccc2)C1)c1ccc(Cl)s1 , give the reported Ki.
(A) 8

----------
5-hydroxytryptamine receptor 1A (Homo sapiens, UniProt P08908): recorded pKi for assorted compounds
Sequence (P08908 whole entry): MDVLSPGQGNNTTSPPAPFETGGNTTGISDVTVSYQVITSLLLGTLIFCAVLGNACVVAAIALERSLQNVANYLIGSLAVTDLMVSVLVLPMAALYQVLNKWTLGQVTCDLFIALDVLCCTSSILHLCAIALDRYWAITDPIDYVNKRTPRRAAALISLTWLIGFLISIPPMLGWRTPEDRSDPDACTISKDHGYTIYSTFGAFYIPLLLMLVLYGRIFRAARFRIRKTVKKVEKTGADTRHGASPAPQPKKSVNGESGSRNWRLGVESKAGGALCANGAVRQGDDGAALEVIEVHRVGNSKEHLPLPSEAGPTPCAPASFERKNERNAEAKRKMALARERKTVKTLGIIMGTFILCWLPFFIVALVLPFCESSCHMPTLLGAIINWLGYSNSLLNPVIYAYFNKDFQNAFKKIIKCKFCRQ
Remember the convention: pKi equals -log10 of concentration in molar.

Compound | pKi
O=S(=O)(NC1CCN(CCOc2ccccc2)CC1)c1cccs1 | 6.63
CC(C)c1ccccc1OCCN1CCC(NS(=O)(=O)c2cccc3cccnc23)C1 (stereo not drawn) | 7.64

(Q) For the compound shown here, O=S(=O)(NC1CCN(CCOc2cccc3c2CCCC3)C1)c1ccc(F)cc1 (stereo not drawn) , give the reported pKi.
(A) 7.66

----------
organism: Homo sapiens; experiment: Selectivity ratio of Ki for human 5-HT1A receptor to Ki for human 5-HT7b receptor
Listed below: Ratio Ki values for each entry.
Output: the number by itself.

Compound | Result
O=S(=O)(NC1CCN(CCOc2ccccc2)C1)c1ccc(F)cc1 (stereo unspecified) | 1
O=S(=O)(NCC1CCN(CCOc2ccccc2-c2ccccc2)CC1)c1ccc(F)cc1 | 22
O=C(NC1CCN(CCOc2ccccc2-c2ccccc2)C1)c1ccc2ccccc2n1 (stereo unspecified) | 1
O=S(=O)(NC1CCN(CCOc2ccccc2-c2ccccc2)CC1)c1ccc(F)c(F)c1 | 45
CC(C)c1ccccc1OCCN1CCC(NS(=O)(=O)c2cccc3cccnc23)C1 (stereo unspecified) | 2
O=C(NC1CCN(CCOc2ccccc2-c2ccccc2)C1)c1cccc(F)c1F (stereo unspecified) | 2

(Q) For the compound shown here, CSc1ccccc1OCCN1CCC(NS(=O)(=O)c2ccc(F)cc2)C1 (stereo unspecified) , give the reported Ratio Ki.
(A) 1

(Q) # iterate: CC(C)c1ccccc1OCCN1CCC(NS(=O)(=O)c2ccc(F)cc2)CC1
(A) 1450

(Q) # iterate: O=S(=O)(NC1CCN(CCOc2cccc3c2CCCC3)C1)c1ccc(F)cc1 (stereo unspecified)
(A) 1

(Q) # iterate: O=S(=O)(N[C@@H]1CCN(CCOc2ccccc2-c2ccccc2)C1)c1ccc(F)cc1
(A) 11

(Q) # iterate: O=S(=O)(N[C@H]1CCN(CCOc2ccccc2-c2ccccc2)C1)c1ccc(F)cc1
(A) 3

(Q) # iterate: O=S(=O)(NC1CCN(CCOc2ccccc2-c2ccccc2)C1)c1cc(F)ccc1F (stereo unspecified)
(A) 9

----------
molecular target: 5-hydroxytryptamine receptor 7 (Homo sapiens, UniProt P34969)
Sequence (P34969 whole entry): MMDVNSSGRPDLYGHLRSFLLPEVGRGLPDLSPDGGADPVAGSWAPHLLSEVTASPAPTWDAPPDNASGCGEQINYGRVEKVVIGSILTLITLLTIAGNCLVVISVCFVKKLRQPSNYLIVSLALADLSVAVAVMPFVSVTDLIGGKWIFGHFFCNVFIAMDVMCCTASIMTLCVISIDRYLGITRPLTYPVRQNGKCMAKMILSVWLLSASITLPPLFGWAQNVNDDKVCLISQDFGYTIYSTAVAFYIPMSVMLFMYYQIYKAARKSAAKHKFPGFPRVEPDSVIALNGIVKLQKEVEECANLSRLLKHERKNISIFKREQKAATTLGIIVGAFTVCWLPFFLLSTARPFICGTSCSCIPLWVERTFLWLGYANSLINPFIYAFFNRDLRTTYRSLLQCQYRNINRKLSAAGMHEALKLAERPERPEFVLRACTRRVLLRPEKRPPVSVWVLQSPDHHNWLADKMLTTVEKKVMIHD
Listed below: Ki values for each entry.
Just the number please, in nM, no unit attached.

(Q) For the compound shown here, CC(C)c1ccccc1OCCN1CCC(CNS(=O)(=O)c2cccc(Cl)c2)CC1 , give the reported Ki.
(A) 46

(Q) # iterate: O=C(NC1CCN(CCOc2cc(Cl)ccc2Cl)CC1)c1ccc2ccccc2n1
(A) 873

(Q) # iterate: COc1ccc(OC)c(S(=O)(=O)NCC2CCN(CCOc3ccccc3C(C)C)CC2)c1
(A) 27

(Q) # iterate: CSc1ccccc1OCCN1CCC(NS(=O)(=O)c2cccc(Cl)c2)C1 (centres undefined)
(A) 15
